Data provenance: patent US20230061736A1

Emax values for the compounds below.
- TARGET OR TEST SYSTEM: human GPR119 (hGPR119) (Homo sapiens, UniProt Q8TDV5)
- Construct: expressed in transfected cells
- Sequence (Q8TDV5 whole entry): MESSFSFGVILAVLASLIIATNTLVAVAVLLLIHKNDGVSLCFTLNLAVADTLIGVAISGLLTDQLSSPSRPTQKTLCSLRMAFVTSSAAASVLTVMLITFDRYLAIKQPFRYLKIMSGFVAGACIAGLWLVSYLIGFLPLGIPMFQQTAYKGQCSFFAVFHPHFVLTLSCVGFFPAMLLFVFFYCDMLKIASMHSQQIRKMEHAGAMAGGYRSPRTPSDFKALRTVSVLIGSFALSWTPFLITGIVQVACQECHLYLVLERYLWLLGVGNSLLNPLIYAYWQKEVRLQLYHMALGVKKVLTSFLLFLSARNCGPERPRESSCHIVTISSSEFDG
- PROTOCOL DESCRIPTION: cAMP accumulation assay (cAMP Gs dynamic HTRF kit)
- Type: cell-based
- CONDITION SUMMARY: 1 h; CHO-K1 cells stably expressing hGPR119; % activity normalized to Max/Min controls; 4-parameter fit
- Protocol: CHO-K1 cells stably expressing human GPR119 (hGPR119) were prepared by transfection of a GPR119-carrying plasmid using Lipofectamine 2000 (following manufacturer instructions). […] Assay-ready frozen (ARF) cells were prepared and used throughout the study. […] RT-FRET was measured using a ClarioSTAR plate reader, calculating the ratio between emissions at 665 nm and 620 nm (HTRF ratio). […] EC50 and Max activity values were determined using a standard 4-parameter fit.

Form field: Emax recorded for O=C(Cc1ccc(COCCCC2CCN(c3ncc(Cl)cn3)CC2)cc1F)N1CC(CNC[C@H](O)[C@@H](O)[C@H](O)[C@H](O)CO)C1 with human GPR119 (hGPR119) (Homo sapiens, UniProt Q8TDV5) (enter value)
50 to 100%
